Hey, just so you know, these numbers are from paper PMC8505397.

In this section we review reported A450 of rDIII on proteins of hBMECs after pre-incubation with the peptide values for a set of binders.
- measuredTarget: T1, recombinant domain III (DIII) of the envelope (E) glycoprotein of West Nile virus (West Nile virus)
- T1 chain: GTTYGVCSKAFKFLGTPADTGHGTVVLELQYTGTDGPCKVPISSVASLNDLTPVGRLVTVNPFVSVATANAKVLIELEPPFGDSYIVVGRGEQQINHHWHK
- assayMethodText: ELISA; blocking ELISA: rDIII (2 µg, printed as 0.15 nM) pre-incubated 1 h at room temperature with a tenfold molar excess (1.5 nM) of peptide, then added to coated hBMEC proteins; negative control (no rDIII) subtracted
- assayConditions: both partners purified
Positions of bridges follow the written chain, without caps; N, C: chain ends. No end group written: not given here.
measureName: A450 of rDIII on proteins of hBMECs after pre-incubation with the peptide

{"binder": "ACTKTDVHFCGGGS (disulfide 2-10 (inferred), additional alanine at the N-terminus (ACX7CGGGS); peptide of phage clone CC2; C-terminal linker; source: E. coli SHuffle T5, purified; N-terminal tag cleaved with enterokinase and removed on nickel beads; not shown: His6, N-terminal, cleaved; 28 aa tag, N-terminal, cleaved) [7-mer cyclic peptide CP2 (ACX7CGGGS form of CTKTDVHFC)]", "reportedResult": 0.117}
{"binder": "ACTYENHRTCGGGS (disulfide 2-10 (inferred), additional alanine at the N-terminus (ACX7CGGGS); peptide of phage clone CC12; C-terminal linker; source: E. coli SHuffle T5, purified; N-terminal tag cleaved with enterokinase and removed on nickel beads; not shown: His6, N-terminal, cleaved; 28 aa tag, N-terminal, cleaved) [7-mer cyclic peptide CP12 (ACX7CGGGS form of CTYENHRTC)]", "reportedResult": 0.418}
{"binder": "SGVYKVAYDWQHGGGS (peptide of phage clone LC3; C-terminal linker; source: E. coli SHuffle T5, purified; N-terminal tag cleaved with enterokinase and removed on nickel beads; not shown: His6, N-terminal, cleaved; 28 aa tag, N-terminal, cleaved) [12-mer linear peptide LP3 (X12GGGS form of SGVYKVAYDWQH)]", "reportedResult": 0.647}
{"binder": "ACDPRHSKFCGGGS (disulfide 2-10 (inferred), additional alanine at the N-terminus (ACX7CGGGS); peptide of phage clone CC15; C-terminal linker; source: E. coli SHuffle T5, purified; N-terminal tag cleaved with enterokinase and removed on nickel beads; not shown: His6, N-terminal, cleaved; 28 aa tag, N-terminal, cleaved) [7-mer cyclic peptide CP15 (ACX7CGGGS form of CDPRHSKFC)]", "reportedResult": 0.423}
{"binder": "ACIHSSTRACGGGS (disulfide 2-10 (inferred), additional alanine at the N-terminus (ACX7CGGGS); peptide of phage clone CC4; C-terminal linker; source: E. coli SHuffle T5, purified; N-terminal tag cleaved with enterokinase and removed on nickel beads; not shown: His6, N-terminal, cleaved; 28 aa tag, N-terminal, cleaved) [7-mer cyclic peptide CP4 (ACX7CGGGS form of CIHSSTRAC)]", "reportedResult": 0.346}
{"binder": "ACMQTQRAHCGGGS (disulfide 2-10 (inferred), additional alanine at the N-terminus (ACX7CGGGS); peptide of phage clone CC6; C-terminal linker; source: E. coli SHuffle T5, purified; N-terminal tag cleaved with enterokinase and removed on nickel beads; not shown: His6, N-terminal, cleaved; 28 aa tag, N-terminal, cleaved) [7-mer cyclic peptide CP6 (ACX7CGGGS form of CMQTQRAHC)]", "reportedResult": 0.56}
{"binder": "ACLAQSHPLCGGGS (disulfide 2-10 (inferred), additional alanine at the N-terminus (ACX7CGGGS); peptide of phage clone CC16; C-terminal linker; also called C16; source: E. coli SHuffle T5, purified; N-terminal tag cleaved with enterokinase and removed on nickel beads; not shown: His6, N-terminal, cleaved; 28 aa tag, N-terminal, cleaved) [7-mer cyclic peptide CP16 (ACX7CGGGS form of CLAQSHPLC)]", "reportedResult": 0.427}
